# assay summary: Absorption maximum (λmax) and molar absorptivity (ε) in solution
# Type: physicochemical
# protocol conditions: diacetone alcohol

molecule | λmax, nm
CCCN1C(=CC=CC=CC2=[N+](CCC)c3cc(C)c(OC)cc3C2(C)C)C(C)(C)c2cc(OC)c(C)cc21 [Preparation Example 6] | 683
CCCCN1C(=CC=CC=CC2=[N+](CCCC)c3cc(OC)c(OC)cc3C2(C)C)C(C)(C)c2cc(OC)c(OC)cc21 [Preparation Example 11] | 703
COCCN1C(=CC=CC=CC2=[N+](CCOC)c3c(C)cc(OC)cc3C2(C)C)C(C)(C)c2cc(OC)cc(C)c21 [Preparation Example 5] | 679
COc1cc(C(C)C)c2c(c1)C(C)(C)C(=CC=CC=CC1=[N+](C)c3c(C(C)C)cc(OC)cc3C1(C)C)N2C [Preparation Example 10] | 681
CCc1cc(OC)cc2c1N(CC)C(=CC=CC=CC1=[N+](CC)c3c(CC)cc(OC)cc3C1(C)C)C2(C)C [Preparation Example 9] | 681
COCN1C(=CC=CC=CC2=[N+](COC)c3cc(OC)c(OC)cc3C2(C)C)C(C)(C)c2cc(OC)c(OC)cc21 [Preparation Example 3] | 702
COc1cc(C)c2c(c1)C(C)(C)C(=CC=CC=CC1=[N+](CCO)c3c(C)cc(OC)cc3C1(C)C)N2CCO [Preparation Example 4] | 679
COCCN1C(=CC=CC=CC2=[N+](CCOC)c3c(OC)cc(OC)cc3C2(C)C)C(C)(C)c2cc(OC)cc(OC)c21 [Preparation Example 14] | 695
COc1cc(OC)c2c(c1)C(C)(C)C(=CC=CC=CC1=[N+](CCOC(C)=O)c3c(OC)cc(OC)cc3C1(C)C)N2CCOC(C)=O [Preparation Example 13] | 693
CCCOc1cc(C)c2c(c1)C(C)(C)C(=CC=CC=CC1=[N+](CC)c3c(C)cc(OCCC)cc3C1(C)C)N2CC [Preparation Example 8] | 683
